Examples of substances with documented Mass Shifted Peptide Theoretical Max Signal follow.
Target: DhaA enzyme (Rhodococcus rhodochrous)
Experiment: Cell free peptide/DhaA conversion, Mass Shifted Peptide Theoretical Max signal (Example 6)
Assay type: biochemical
Settings: DhaA converts —Cl input agent into —OH product agent, MS signal
Procedure: For the cell free systems, DPLs were diluted in a 500 μL DPW plate (library dilution plate). Individual peptides were diluted individually in low-bind tubes until making the final working dilution in PBS. At this point, the individual peptides were transferred to the library dilution plate. By having all final dilutions in one plate, a multichannel was used to transfer the diluted peptides to the cell free plates. The same design as “Source Plate” was used for the cell assay. […]
// no unit string in output, number only

Recorded Mass Shifted Peptide Theoretical Max Signal, per entry:
• HaloTagO2-Leu-Thr-Phe-ReN-Thr-Tyr-Trp-Ala-Gln-Cba-Az-Ser-Ala-Ala-NHMe [PEP000132] = 6E+06
• HaloTagO2-Leu-Thr-Phe-ReN-Glu-Tyr-Trp-Ala-Thr-Cba-Az-Ser-Ala-Ala-NH2 [PEP000134] = 6E+06

Fill in the blank: the reported Mass Shifted Peptide Theoretical Max Signal of HaloTagO2-Leu-Thr-Phe-ReN-Ala-Tyr-Trp-Ala-Gln-Cba-Az-Ser-Ala-Ala-NH2 [PEP000127] is ____.
8E+06

Fill in the blank: the reported Mass Shifted Peptide Theoretical Max Signal of HaloTagO2-Leu-Thr-Phe-ReN-Ala-Tyr-Trp-Ala-Gln-Cba-Az-Ser-Ala-Ala-NHMe [PEP000130] is ____.
7E+06

###

Examples of molecules with documented Mass Shifted Peptide Signal in Cells follow.
Tested on: Expi293 cells transfected with His-Halotag
Experiment: Library cell penetration assay, cell crash method (Example 6)
Format: in vitro ADME, human
Settings: MS signal of —OH agent from cells, library pool or individual peptide
// no unit string in output, number only

Fill in the blank: the reported Mass Shifted Peptide Signal in Cells of CNC(=O)[C@H](C)NC(=O)[C@H](C)NC(=O)[C@H](CO)NC(=O)[C@]1(C)CCCC=CCCCCCC[C@@](C)(NC(=O)[C@H](Cc2ccccc2)NC(=O)[C@@H](NC(=O)[C@H](CC(C)C)NC(=O)CCC(=O)NCCOCCOCCCCCCCl)[C@@H](C)O)C(=O)N[C@@H](CCC(=O)O)C(=O)N[C@@H](Cc2ccc(O)cc2)C(=O)N[C@@H](Cc2c[nH]c3ccccc23)C(=O)N[C@@H](C)C(=O)N[C@@H](C)C(=O)N[C@@H](CC2CCC2)C(=O)N1 is ____.
5E+07

###

Tested on: Expi293 cells transfected with His-Halotag
Assay: Library cell penetration assay, cell crash method (Example 6)
Assay type: in vitro ADME, human
Conditions: library pool tested as mixture, MS signal of unconverted —Cl agent
assay.endpoint: Peptide Signal in Cells (from cells; agents comprising —Cl)
// no unit string in output, number only

Fill in the blank: the reported Peptide Signal in Cells (from cells; agents comprising —Cl) of CNC(=O)[C@H](C)NC(=O)[C@H](C)NC(=O)[C@H](CO)NC(=O)[C@]1(C)CCCC=CCCCCCC[C@@](C)(NC(=O)[C@H](Cc2ccccc2)NC(=O)[C@@H](NC(=O)[C@H](CC(C)C)NC(=O)CCC(=O)NCCOCCOCCCCCCCl)[C@@H](C)O)C(=O)N[C@@H]([C@@H](C)O)C(=O)N[C@@H](Cc2ccc(O)cc2)C(=O)N[C@@H](Cc2c[nH]c3ccccc23)C(=O)N[C@@H](C)C(=O)N[C@@H](CCC(N)=O)C(=O)N[C@@H](CC2CCC2)C(=O)N1 is ____.
1E+07

###

Molecular target: DhaA enzyme (Rhodococcus rhodochrous, UniProt P0A3G2)
Sequence (P0A3G2 whole entry): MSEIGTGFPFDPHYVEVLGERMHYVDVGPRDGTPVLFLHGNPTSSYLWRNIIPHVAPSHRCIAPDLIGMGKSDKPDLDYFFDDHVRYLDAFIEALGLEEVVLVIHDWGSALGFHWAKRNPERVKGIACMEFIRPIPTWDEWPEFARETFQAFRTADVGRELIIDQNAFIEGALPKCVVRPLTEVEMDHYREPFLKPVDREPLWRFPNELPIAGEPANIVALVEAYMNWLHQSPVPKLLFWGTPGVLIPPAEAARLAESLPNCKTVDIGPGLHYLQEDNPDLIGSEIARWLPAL
Assay: Cell free peptide/DhaA conversion, Mass Shifted Peptide Theoretical Max signal (Example 6)
Assay type: biochemical
Conditions: DhaA converts —Cl input agent into —OH product agent, MS signal
assay.endpoint: Mass Shifted Peptide Theoretical Max Signal
// no unit string in output, number only

- HaloTagO2-Leu-Thr-Phe-ReN-Thr-Tyr-Trp-Ala-Gln-Cba-Az-Ser-Ala-Ala-NH2 [PEP000129]: 6E+06
- HaloTagO2-Leu-Thr-Phe-ReN-Glu-Tyr-Trp-Ala-Gln-Cba-Az-Ser-Ala-Ala-NH2 [PEP000128]: 4E+06
- HaloTagO2-Leu-Thr-Phe-ReN-Glu-Tyr-Trp-Ala-Ala-Cba-Az-Ser-Ala-Ala-NHMe [PEP000135]: 5E+06

Here's the next entry for you.
Fill in the blank: the reported Mass Shifted Peptide Theoretical Max Signal of HaloTagO2-Leu-Thr-Phe-ReN-Glu-Tyr-Trp-Ala-Gln-Cba-Az-Ser-Ala-Ala-NHMe [PEP000131] is ____.
3E+06

###

Examples of substances with documented Cell Penetration Score follow.
System: Expi293 cells transfected with His-Halotag
Test: Library cell penetration assay, cell crash method (Example 6)
Type: in vitro ADME, human
Details: Mass Shifted Peptide Signal in Cells divided by Mass Shifted Peptide Theoretical Max Signal, averaged across replicates
// no unit string in output, number only

* HaloTagO2-Leu-Thr-Phe-ReN-Glu-Tyr-Trp-Ala-Gln-Cba-Az-Ser-Ala-Ala-NHMe [PEP000136] | 0
* HaloTagO2-Leu-Thr-Phe-ReN-Ala-Tyr-Trp-Ala-Gln-Cba-Az-Ser-Ala-Ala-NH2 [PEP000127] | 17

Fill in the blank: the reported Cell Penetration Score of HaloTagO2-Leu-Thr-Phe-ReN-Glu-Tyr-Trp-Ala-Thr-Cba-Az-Ser-Ala-Ala-NH2 [PEP000134] is ____.
2

Fill in the blank: the reported Cell Penetration Score of HaloTagO2-Leu-Thr-Phe-ReN-Thr-Tyr-Trp-Ala-Gln-Cba-Az-Ser-Ala-Ala-NH2 [PEP000129] is ____.
19

Fill in the blank: the reported Cell Penetration Score of HaloTagO2-Leu-Thr-Phe-ReN-Ala-Tyr-Trp-Ala-Gln-Cba-Az-Ser-Ala-Ala-NHMe [PEP000130] is ____.
27

Fill in the blank: the reported Cell Penetration Score of HaloTagO2-Leu-Thr-Phe-ReN-Glu-Tyr-Trp-Ala-Thr-Cba-Az-Ser-Ala-Ala-NHMe [PEP000137] is ____.
6

Fill in the blank: the reported Cell Penetration Score of HaloTagO2-Leu-Thr-Phe-ReN-Glu-Tyr-Trp-Ala-Ala-Cba-Az-Ser-Ala-Ala-NH2 [PEP000133] is ____.
5

###

Examples of substances with documented Mass Shifted Peptide Theoretical Max Signal follow.
Target: DhaA enzyme (Rhodococcus rhodochrous)
Experiment: Cell free peptide/DhaA conversion, Mass Shifted Peptide Theoretical Max signal (Example 6)
Assay type: biochemical
Details: DhaA converts —Cl input agent into —OH product agent, MS signal
// no unit string in output, number only

Recorded Mass Shifted Peptide Theoretical Max Signal, per entry:
* HaloTagO2-Leu-Thr-Phe-ReN-Glu-Tyr-Trp-Ala-Gln-Cba-Az-Ser-Ala-Ala-NHMe [PEP000136] | 4E+06
* HaloTagO2-Leu-Thr-Phe-ReN-Glu-Tyr-Trp-Ala-Ala-Cba-Az-Ser-Ala-Ala-NH2 [PEP000133] | 5E+06

Here's the next entry for you.
Fill in the blank: the reported Mass Shifted Peptide Theoretical Max Signal of HaloTagO2-Leu-Thr-Phe-ReN-Glu-Tyr-Trp-Ala-Thr-Cba-Az-Ser-Ala-Ala-NHMe [PEP000137] is ____.
6E+06

###

Examples of compounds with documented Mass Shifted Peptide Signal in Cells follow.
System: Expi293 cells transfected with His-Halotag
Assay: Library cell penetration assay, cell crash method (Example 6)
Type: in vitro ADME, human
Conditions: MS signal of —OH agent from cells, library pool or individual peptide

Recorded Mass Shifted Peptide Signal in Cells, per entry:
* CC(C)C[C@H](NC(=O)CCC(=O)NCCOCCOCCCCCCCl)C(=O)N[C@H](C(=O)N[C@@H](Cc1ccccc1)C(=O)N[C@]1(C)CCCCCCC=CCCC[C@@](C)(C(=O)N[C@@H](CO)C(=O)N[C@@H](C)C(=O)N[C@@H](C)C(N)=O)NC(=O)[C@H](CC2CCC2)NC(=O)[C@H]([C@@H](C)O)NC(=O)[C@H](C)NC(=O)[C@H](Cc2c[nH]c3ccccc23)NC(=O)[C@H](Cc2ccc(O)cc2)NC(=O)[C@H](CCC(=O)O)NC1=O)[C@@H](C)O | 9E+07
* CNC(=O)[C@H](C)NC(=O)[C@H](C)NC(=O)[C@H](CO)NC(=O)[C@]1(C)CCCC=CCCCCCC[C@@](C)(NC(=O)[C@H](Cc2ccccc2)NC(=O)[C@@H](NC(=O)[C@H](CC(C)C)NC(=O)CCC(=O)NCCOCCOCCCCCCCl)[C@@H](C)O)C(=O)N[C@@H](CCC(=O)O)C(=O)N[C@@H](Cc2ccc(O)cc2)C(=O)N[C@@H](Cc2c[nH]c3ccccc23)C(=O)N[C@@H](C)C(=O)N[C@@H]([C@@H](C)O)C(=O)N[C@@H](CC2CCC2)C(=O)N1 | 4E+07

Fill in the blank: the reported Mass Shifted Peptide Signal in Cells of CNC(=O)[C@H](C)NC(=O)[C@H](C)NC(=O)[C@H](CO)NC(=O)[C@]1(C)CCCC=CCCCCCC[C@@](C)(NC(=O)[C@H](Cc2ccccc2)NC(=O)[C@@H](NC(=O)[C@H](CC(C)C)NC(=O)CCC(=O)NCCOCCOCCCCCCCl)[C@@H](C)O)C(=O)N[C@@H](CCC(=O)O)C(=O)N[C@@H](Cc2ccc(O)cc2)C(=O)N[C@@H](Cc2c[nH]c3ccccc23)C(=O)N[C@@H](C)C(=O)N[C@@H](CCC(N)=O)C(=O)N[C@@H](CC2CCC2)C(=O)N1 (single isomer, unassigned) is ____.
5E+07
